This listing pairs molecules with measured Absolute Boost Difference.
Biological target: human NMDA-NR2B containing receptors (Homo sapiens, UniProt Q05586+Q13224)
Sequence (Q13224 27-1484, other chains not shown): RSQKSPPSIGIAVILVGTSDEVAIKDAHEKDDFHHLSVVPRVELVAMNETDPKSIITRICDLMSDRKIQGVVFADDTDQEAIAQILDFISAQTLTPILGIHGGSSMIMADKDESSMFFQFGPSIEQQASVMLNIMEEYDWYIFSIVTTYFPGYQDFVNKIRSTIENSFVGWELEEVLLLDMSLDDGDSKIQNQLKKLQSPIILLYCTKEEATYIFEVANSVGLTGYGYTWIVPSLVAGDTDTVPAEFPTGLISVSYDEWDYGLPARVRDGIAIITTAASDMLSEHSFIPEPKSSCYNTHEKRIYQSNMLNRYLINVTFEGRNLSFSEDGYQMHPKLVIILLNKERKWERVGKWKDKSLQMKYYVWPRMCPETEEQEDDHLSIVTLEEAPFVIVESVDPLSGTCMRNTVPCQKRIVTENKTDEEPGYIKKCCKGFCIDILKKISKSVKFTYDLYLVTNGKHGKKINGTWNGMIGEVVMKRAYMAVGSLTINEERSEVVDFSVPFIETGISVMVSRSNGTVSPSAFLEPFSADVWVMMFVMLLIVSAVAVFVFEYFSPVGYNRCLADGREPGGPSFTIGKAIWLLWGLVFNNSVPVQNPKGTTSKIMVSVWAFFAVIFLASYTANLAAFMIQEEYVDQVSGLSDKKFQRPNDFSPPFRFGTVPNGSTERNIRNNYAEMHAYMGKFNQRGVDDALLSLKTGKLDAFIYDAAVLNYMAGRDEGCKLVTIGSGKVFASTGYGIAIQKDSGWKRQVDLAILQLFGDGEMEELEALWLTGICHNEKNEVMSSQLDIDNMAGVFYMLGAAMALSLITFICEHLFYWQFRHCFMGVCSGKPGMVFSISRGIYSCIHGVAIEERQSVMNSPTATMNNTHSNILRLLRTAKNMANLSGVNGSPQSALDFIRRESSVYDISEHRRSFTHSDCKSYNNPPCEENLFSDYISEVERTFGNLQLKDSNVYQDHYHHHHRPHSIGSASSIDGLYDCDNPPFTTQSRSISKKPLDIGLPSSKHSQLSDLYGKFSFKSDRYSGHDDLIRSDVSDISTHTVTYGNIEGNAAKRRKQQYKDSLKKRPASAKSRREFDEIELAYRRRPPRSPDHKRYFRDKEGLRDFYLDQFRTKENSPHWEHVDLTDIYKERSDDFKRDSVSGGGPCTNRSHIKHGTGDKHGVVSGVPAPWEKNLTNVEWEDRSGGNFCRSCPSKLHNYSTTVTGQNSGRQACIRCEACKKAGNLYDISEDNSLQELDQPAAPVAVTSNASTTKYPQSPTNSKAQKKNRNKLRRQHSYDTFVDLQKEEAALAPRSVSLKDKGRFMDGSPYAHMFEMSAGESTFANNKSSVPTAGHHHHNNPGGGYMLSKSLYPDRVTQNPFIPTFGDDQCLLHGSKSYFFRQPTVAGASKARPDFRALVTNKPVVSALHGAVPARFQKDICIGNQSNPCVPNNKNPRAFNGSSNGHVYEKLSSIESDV
Assay: pH potency boost, Xenopus oocyte assay, human receptor cDNA
Assay type: cell-based
Details: rat versus human pH potency boost

Q) Answer briefly: Absolute Boost Difference recorded on human NMDA-NR2B containing receptors (Homo sapiens, UniProt Q05586+Q13224) for CCCCN(CCc1ccc(Cl)c(Cl)c1)CC(O)COc1ccc(NS(C)(=O)=O)cc1 (centres unmarked)
A) 15.8

Q) Please tell me the measured Absolute Boost Difference for CS(=O)(=O)Nc1ccc(OCC(O)CN2CCN(c3ccc(F)c(F)c3)CC2)cc1 (centres unmarked) ; system: human NMDA-NR2B containing receptors (Homo sapiens, UniProt Q05586+Q13224).
A) 14.3

Q) Given CS(=O)(=O)Nc1ccc(OCC(O)CN(CCc2ccc(Cl)c(Cl)c2)Cc2ccccc2)cc1 (centres unmarked) , report its Absolute Boost Difference on human NMDA-NR2B containing receptors (Homo sapiens, UniProt Q05586+Q13224).
A) 13.6

New cases:
Q) Please report Absolute Boost Difference with human NMDA-NR2B containing receptors (Homo sapiens, UniProt Q05586+Q13224) for item CS(=O)(=O)Nc1ccc(OCC2CN(CCc3cc(Cl)c(Cl)s3)C(c3c(F)c(F)c(F)c(F)c3F)O2)cc1 (centres unmarked) .
A) 4.6

Q) Write down measured Absolute Boost Difference (human NMDA-NR2B containing receptors (Homo sapiens, UniProt Q05586+Q13224)) for this molecule. C/C=C/CN(CCc1ccc(Cl)c(Cl)c1)CC(O)COc1ccc(NS(C)(=O)=O)cc1 (centres unmarked)
A) 13.9
